Entries and their cell viability (log2) values follow.
Test system: A673/TR/shEF
assay_details: cell viability (LOESS-normalised, relative to median of negative controls) (log2 ratio); higher = more viable cells (less compound effect), active = hit call of the paper (over 3 MAD below the median)
test_conditions: 0.25 µM; library screen: screen1; EWS-FLI1 expression: high (no doxycycline); treatment time: 72 h
Out of some 3,200 compounds screened, about 300 (9.4%) showed activity. The list comes from a sample in which actives are over-represented; it also holds close analogues and randomly drawn compounds.
A bare number is all that is needed in reply.

Below: 6 compounds and their reported cell viability (log2).
| compound | cell viability (log2) |
| --- | --- |
| CC(=O)[O][Hg][c]1ccccc1 | -0.557 |
| COc1cccc2c1cc([N+](=O)[O-])c1c(C(=O)O)cc3c(c12)OCO3 | 0.0105 |
| CCC(C)c1cnc(CC(C)C)c(=O)n1O (stereo not drawn) | 0.088 |
| COc1c2c(cc3c1OCO3)CCN(C)C2 | 0.00337 |
| CC(=O)Oc1ccc(C=Cc2cc(OC(C)=O)cc(OC(C)=O)c2)cc1 | 0.101 |
| O=C(O)CF | -0.0204 |

q: // fetch cell viability (log2); item: CC[C@@H](C(=O)[C@@H](C)[C@@H](O)[C@H](C)[C@@H]1O[C@@H]([C@@H](CC)C(=O)O)CC[C@@H]1C)[C@H]1OC2(C=C[C@@H](O)[C@]3(CC[C@@](C)([C@H]4CC[C@](O)(CC)[C@H](C)O4)O3)O2)[C@H](C)C[C@@H]1C (stereo partly drawn) ; system: A673/TR/shEF
a: -0.101

q: // fetch cell viability (log2); item: C[C@@H]1[C@H](O)[C@@H](C)/C=C/C=C/CC/C=C/C=C/C=C/C=C/C(O[C@H]2O[C@H](C)[C@@H](O)[C@H](N)[C@@H]2O)CC2O[C@](O)(CC(O)C(O)CCC(O)CC(O)CC(O)CC(=O)O[C@H]1C)CC(O)C2C(=O)O (stereo partly drawn) ; system: A673/TR/shEF
a: 0.0655

---

Test system: A673/TR/shEF
assay_details: cell viability (LOESS-normalised, relative to median of negative controls) (log2 ratio); higher = more viable cells (less compound effect), active = hit call of the paper (over 3 MAD below the median)
test_conditions: 2.5 µM; library screen: screen1; EWS-FLI1 expression: low (doxycycline-induced shRNA knockdown); treatment time: 72 h
About 300 (9.4%) of roughly 3,200 compounds showed activity. For the sample, actives were picked, then their nearest neighbours and some compounds at random.
Returns: one label drawn from active, inactive

| molecule | qualitative_label |
| --- | --- |
| CC(=O)OC1CCC23C(=O)OC45CCC(C6=CC(=O)OC6)C4(C)CCC2C5CCC3(O)C1 (configuration not stated) | active |
| CC(C)c1ccc2c(c1O)CCC1C3=C(CCC21C)C(=O)OC3 (configuration not stated) | inactive |
| C=C(C)C(=O)/C(=C\C(=O)O)OC | inactive |
| CCCN(CCC)c1c([N+](=O)[O-])cc(C(F)(F)F)cc1[N+](=O)[O-] | inactive |
| CN[C@@H](Cc1c[nH]c2ccccc12)C(=O)O | inactive |
| NC1CC1c1ccccc1 (configuration not stated) | inactive |
| Clc1ccc(Cl)cc1 | inactive |
| COP(=O)(OC)OC(Br)C(Cl)(Cl)Br (configuration not stated) | inactive |
| CC(=O)O[C@H]1CC[C@]2(C=O)C3CC[C@]4(C)[C@@H](C5=CC(=O)OC5)CC[C@]4(O)C3CC[C@]2(O)C1 (some centres not stated) | active |
| CN1[C@@H]2CC[C@H]1CC(OC(=O)C(CO)c1ccccc1)C2 (some centres not stated) | inactive |

q: For CCNc1nc(Cl)nc(NCC)n1 , which call appears in the assay record?
a: inactive

q: For CC(C)N1C(=O)c2ccccc2NS1(=O)=O , which call appears in the assay record?
a: inactive
